# tested system: human adenosine A2A receptor (A2aR) (human, UniProt P29274 1-412)
# Sequence (P29274 whole entry): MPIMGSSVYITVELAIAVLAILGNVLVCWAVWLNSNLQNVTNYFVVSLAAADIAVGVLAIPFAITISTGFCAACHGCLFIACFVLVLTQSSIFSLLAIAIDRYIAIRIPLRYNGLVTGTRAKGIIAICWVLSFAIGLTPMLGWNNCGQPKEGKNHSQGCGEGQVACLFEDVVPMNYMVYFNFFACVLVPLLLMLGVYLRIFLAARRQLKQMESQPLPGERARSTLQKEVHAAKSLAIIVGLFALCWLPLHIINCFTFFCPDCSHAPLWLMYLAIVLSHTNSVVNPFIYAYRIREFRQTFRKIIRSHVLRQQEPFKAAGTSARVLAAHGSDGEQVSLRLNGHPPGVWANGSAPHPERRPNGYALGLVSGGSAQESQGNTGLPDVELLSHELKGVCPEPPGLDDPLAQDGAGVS
# experimental details: flow cytometry, HEK293-hA2aR cells, supernatant 1 ug/ml
metric name: MFI (MFI)
Enter your answer as a number in MFI; do not include the unit.

Per the records, this binder ( Hu3F8-H4/Hu3F8-L2 (antibody, human IgG1, V domains shown) VH: EVQLVQSGAEVKKPGASVKVSCKASGFTFTRYWMNWVRQAPGQGLEWIGRIDPSDSETHYNHKFWGRATLTVDKSTSTVYMELSSLRSEDTAVYYCLRSLYGKGDYWGQGTTVTVSS VL: DVVMTQSPLSLPVTLGQPASISCRSSQSIVHSNGNTYLEWYQQRPGQSPRRLIYKVSNRFSGVPDRFSGSGSGTDFTLKISRVEAEDVGVYYCYQGSHVPLTFGGGTKVEIK ) has MFI equal to 131

Per the records, this binder ( Hu3F8-H4/Hu3F8-L1 (antibody, human IgG1, V domains shown) VH: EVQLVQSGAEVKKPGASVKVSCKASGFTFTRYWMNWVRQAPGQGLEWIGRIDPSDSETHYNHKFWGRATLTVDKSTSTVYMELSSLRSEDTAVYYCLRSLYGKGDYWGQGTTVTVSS VL: DVVMTQSPLSLPVTLGQPASISCRSSQSIVHSNGNTYLEWFQQRPGQSPRRLIYKVSNRFSGVPDRFSGSGSGTDFTLKISRVEAEDVGVYYCYQGSHVPLTFGGGTKVEIK ) has MFI equal to 110

Per the records, this binder ( Hu3F6-H3/Hu3F6-L2 (antibody, human IgG1, V domains shown) VH: EVQLVQSGAEVKKPGASVKVSCKTSGFAFTSYWMNWVRQAPGQGLEWIGRIDPSDSEAHYHHKFWGRATLTVDTSSSTVYMELSSLRSEDTAVYYCLRSLYGKGDYWGHGTTVTVSS VL: DVVMTQSPLSLPVTLGQPASISCRSSQSLVHRNGNTYLEWYQQRPGQSPRRLIYKVSNRFSGVPDRFSGSGSGTDFTLKISRVEAEDVGVYYCYQGSHVPLTFGGGTKVEIK ) has MFI equal to 200
